B1: PhoQ; a variant is named by its letters at X, in order, P23837 (parent)
chain: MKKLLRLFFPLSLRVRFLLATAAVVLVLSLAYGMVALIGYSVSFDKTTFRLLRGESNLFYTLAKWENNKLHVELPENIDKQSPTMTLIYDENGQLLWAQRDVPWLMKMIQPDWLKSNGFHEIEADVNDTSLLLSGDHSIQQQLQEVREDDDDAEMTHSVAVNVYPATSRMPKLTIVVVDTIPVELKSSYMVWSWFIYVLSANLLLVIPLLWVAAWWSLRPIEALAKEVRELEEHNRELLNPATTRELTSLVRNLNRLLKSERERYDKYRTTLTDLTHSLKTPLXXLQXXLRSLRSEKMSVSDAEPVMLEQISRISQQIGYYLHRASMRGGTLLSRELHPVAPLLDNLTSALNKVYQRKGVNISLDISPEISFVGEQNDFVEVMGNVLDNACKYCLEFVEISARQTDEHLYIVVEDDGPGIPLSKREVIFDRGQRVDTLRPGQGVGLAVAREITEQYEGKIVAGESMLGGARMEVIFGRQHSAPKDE

variants of: B1; experiment: enrichment ratio after two sorts for PhoP signalling (ratio (wild type AVST 3.29)); higher = more functional; details: with PhoP (E. coli)
Over roughly 140,000 sequences, “enrichment ratio after two sorts for PhoP signalling” has its median near 0; the highest 2% begin near 11. What follows is part of a selection rich in the highest values, with near analogues and random picks from the rest.
Metric: enrichment ratio

VGFR | ≤ 0.25

Endpoint output: enrichment ratio of SICG . Value?
22

# enrichment ratio lookup, item RPHE
≤ 0.25

If you can, please state the reported enrichment ratio value of MGHI .
19.7

Which enrichment ratio reading was recorded for the variant LLSI ?
≤ 0.25

What measured enrichment ratio goes with MIMD ?
≤ 0.25

Which enrichment ratio value is on record for QCSK ?
≤ 0.25

Please look up its enrichment ratio: QEGH
24.6

I would be grateful if you could share the reported enrichment ratio for QNGD .
≤ 0.25

Entry under review: QITH . Reported enrichment ratio?
≤ 0.25

Give the measured enrichment ratio of SRND .
≤ 0.25

Which enrichment ratio is listed for YPTT ?
≤ 0.25

Look up enrichment ratio: EAPP
≤ 0.25

Find the recorded enrichment ratio belonging to MGYD and report it.
≤ 0.25

Item under review: QIYH . Reported enrichment ratio?
≤ 0.25

Fill in the blank: the reported enrichment ratio of MGYK is ____.
≤ 0.25

So what does the record say about enrichment ratio for QNYM ?
≤ 0.25
